Readings of bioavailability for the listed compounds
Assay: Pharmacokinetic profiles in rat
Conditions: in vivo, po, 20 mg/kg
// note: answer is a bare numeric in %

// CC(C)c1cc(C(=O)N(C)c2ccc3[nH]ccc3c2)c(O)cc1O [Compound 20b] : bioavailability value = 37

// CC(C)c1cc(C(=O)N(C)c2ccc3c(ccn3C)c2)c(O)cc1O [Compound 20g] : bioavailability value = 1.3

// CCN(C(=O)c1cc(C(C)C)c(O)cc1O)c1ccc2[nH]ccc2c1 [Compound 20c] : bioavailability value = 22

Turning now to a further compound:
// CCN(C(=O)c1cc(C(C)C)c(O)cc1O)c1ccncc1 [Compound 19b] : bioavailability value = 11

* * *

Assay: Pharmacokinetic profiles in rat
Conditions: in vivo, iv, 2 mg/kg
Quick rule for you: Vd under 9 L/kg gets Fulfilled, anything else gets Not fulfilled.

Here are 3 compounds together with their reported answers.
Query block: Strictly below 9 L/kg: is that where Vd of CC(C)c1cc(C(=O)N(C)c2ccc3[nH]ccc3c2)c(O)cc1O [Compound 20b] sits?
Result block: Not fulfilled

Query block: Strictly below 9 L/kg: is that where Vd of CC(C)c1cc(C(=O)N(C)c2ccc3c(ccn3C)c2)c(O)cc1O [Compound 20g] sits?
Result block: Fulfilled

Query block: Strictly below 9 L/kg: is that where Vd of CCN(C(=O)c1cc(C(C)C)c(O)cc1O)c1ccncc1 [Compound 19b] sits?
Result block: Not fulfilled

// switching to the query compound
Query block: Strictly below 9 L/kg: is that where Vd of CCN(C(=O)c1cc(C(C)C)c(O)cc1O)c1cccnc1 [Compound 18b] sits?
Result block: Fulfilled

* * *

Experiment: Pharmacokinetic profiles in rat
Settings: in vivo, iv, 2 mg/kg, AUC(0-inf), IV (2 mg/kg)
Readings of AUC(0-inf) for the listed compounds
// note: answer is a bare numeric in ng·h/mL

// CCN(C(=O)c1cc(C(C)C)c(O)cc1O)c1ccncc1 [Compound 19b] : AUC(0-inf) value = 442

Turning now to a further compound:
// CCN(C(=O)c1cc(C(C)C)c(O)cc1O)c1cccnc1 [Compound 18b] : AUC(0-inf) value = 520

* * *

Tested on: colorectal HCT116
Test: Sulforhodamine B (SRB) assay, colorectal HCT116
Assay type: cell-based
Details: Homo sapiens, HCT-116; Table 1; SRB, 48 h; read-out: GI50 Colorectal HCT116
PARAMETER: GI50 (µM)
// note: answer is a bare numeric in µM

Previously resolved entries follow.
# lookup: CCN(C(=O)c1cc(C(C)C)c(O)cc1O)c1ccncc1 [Compound 19b] on colorectal HCT116, GI50 = 0.64

# lookup: CC(C)c1cc(C(=O)N(C)c2ncnc3c2ccn3C)c(O)cc1O [Compound 27b] on colorectal HCT116, GI50 = 8.96

# lookup: CC(C)c1cc(C(=O)N(C)c2cnc3c(ccn3C)c2)c(O)cc1O [Compound 24c] on colorectal HCT116, GI50 = 0.71

Continuing:
# lookup: CC(C)c1cc(C(=O)N(C)c2ccc3c(c2)CCCN3C)c(O)cc1O [Compound 33c] on colorectal HCT116, GI50 = 6.51

* * *

Readings of Tmax for the listed molecules
Assay: Pharmacokinetic profiles in rat
Conditions: in vivo, po, 20 mg/kg
// note: answer is a bare numeric in h

Previously resolved entries follow.
// CC(C)c1cc(C(=O)N(C)c2ccc3[nH]ccc3c2)c(O)cc1O [Compound 20b] : Tmax value = 2.2

// CCN(C(=O)c1cc(C(C)C)c(O)cc1O)c1ccncc1 [Compound 19b] : Tmax value = 0.3

// CCN(C(=O)c1cc(C(C)C)c(O)cc1O)c1ccc2[nH]ccc2c1 [Compound 20c] : Tmax value = 2.7

Continuing:
// CC(C)c1cc(C(=O)N(C)c2ccc3c(ccn3C)c2)c(O)cc1O [Compound 20g] : Tmax value = 0.5

// CCN(C(=O)c1cc(C(C)C)c(O)cc1O)c1cccnc1 [Compound 18b] : Tmax value = 6

* * *

Experiment: Pharmacokinetic profiles in rat
Conditions: in vivo, po, 20 mg/kg
Readings of Cmax for the listed molecules
// note: answer is a bare numeric in ng/mL

// CCN(C(=O)c1cc(C(C)C)c(O)cc1O)c1cccnc1 [Compound 18b] : Cmax value = 40

// CCN(C(=O)c1cc(C(C)C)c(O)cc1O)c1ccc2[nH]ccc2c1 [Compound 20c] : Cmax value = 67

// CCN(C(=O)c1cc(C(C)C)c(O)cc1O)c1ccncc1 [Compound 19b] : Cmax value = 51

// CC(C)c1cc(C(=O)N(C)c2ccc3c(ccn3C)c2)c(O)cc1O [Compound 20g] : Cmax value = 12.8
